# Assay overview: Half life in CD-1 mouse lung at 40 mg/kg, po
# Format: ADME, organism-based
# Design: dose 40 mg/kg, route oral
Catalogue of half-life readings, one per entry.
A number alone suffices; assume h.

Query: Param item = O=C(O[C@@H]1COc2nc([N+](=O)[O-])cn2C1)N1CCN(c2ccc(OC(F)(F)F)cc2)CC1 ; retrieve measured half-life.
Reply: 10.5

Okay, now this compound:
Query: // returns reported half-life for input O=C(Nc1ccc(OC(F)(F)F)cc1)O[C@@H]1COc2nc([N+](=O)[O-])cn2C1
Reply: 4.1

* * *

# reported remaining at 1 h; entries follow
# Assay overview: Metabolic stability of the compound in CD-1 mouse liver microsomes assessed as compound remaining after 1 hr
# Assay type: ADME, Microsome
# Condition label: read-out: Stability
Kindly provide the numeric value in % only, without the unit symbol.

Please review the following examples before continuing.
Query: Using the record for O=C(Nc1ccc(-c2ccc(OC(F)(F)F)cc2)cc1)N[C@@H]1COc2nc([N+](=O)[O-])cn2C1 , report its remaining at 1 h.
Reply: 90

Query: // returns reported remaining at 1 h for input O=C(Nc1cccc(-c2ccc(OC(F)(F)F)cc2)c1)N[C@@H]1COc2nc([N+](=O)[O-])cn2C1
Reply: 88

Continue with the next compound.
Query: What remaining at 1 h value was documented for this compound, O=C(Nc1ccc(OC(F)(F)F)cc1)O[C@@H]1COc2nc([N+](=O)[O-])cn2C1 ?
Reply: 89
